# Assay info: single-oral-dose pharmacokinetic study, plasma AVA and metabolite concentrations in pediatric hypercholesterolemia stratified by SLCO1B1 c.521T>C genotype
# Type: in vivo, human
# Measurement setup: human, plasma, po, 10 mg, SLCO1B1 c.521C/C (n = 2); single oral 10 mg dose; mean (±SD)
Each entry below lists one item and its recorded Cmax value.
Your answer should be a plain number; it is taken to be in ng/mL.

Solved cases (2 shown):
| Compound | Measured number |
| --- | --- |
| CC(C)c1c(C(=O)Nc2ccccc2)c(-c2ccccc2)c(-c2ccc(F)cc2)n1CC[C@@H]1C[C@@H](O)CC(=O)O1 | 1.5 |
| CC(C)c1c(C(=O)Nc2ccccc2O)c(-c2ccccc2)c(-c2ccc(F)cc2)n1CC[C@@H](O)C[C@@H](O)CC(=O)O [2-Hydroxy Atorvastatin, 2-hydroxyatorvastatin] | 1.3 |

[Q] Kindly indicate its recorded Cmax. Item: CC(C)c1c(C(=O)Nc2ccccc2O)c(-c2ccccc2)c(-c2ccc(F)cc2)n1CCC1CC(O)CC(=O)O1 (stereo not drawn) [2-Hydroxy Atorvastatin Lactone, 2-hydroxyatorvastatin lactone]
[A] 1.9

----------
# Assay info: single-oral-dose pharmacokinetic study, plasma AVA and metabolite concentrations in pediatric hypercholesterolemia stratified by SLCO1B1 c.521T>C genotype
# Type: in vivo, human
# Measurement setup: human, plasma, po, 10 mg, SLCO1B1 c.521C/C (n = 2); single oral 10 mg dose; plasma; mean (±SD); read-out: AUC0–24
# Procedure: A screening physical examination (including sexual maturity rating via Tanner Staging) was performed prior to ingesting AVA. […] Samples were immediately centrifuged at 4 °C for 10 min at 600 g. Plasma was removed and stored at -80 °C until the analysis. […] An aliquot of the extracts was then transferred to a 96-well plate and analyzed by ultra-performance liquid chromatography tandem mass spectrometry (UPLC-MS/MS) with positive-ion electrospray ionization using multiple-reaction monitoring (MRM). […]
Each entry below lists one item and its recorded AUC(0-t) value.
Your answer should be a plain number; it is taken to be in ng·h/mL.

Solved cases (2 shown):
| Molecule | AUC(0-t) (ng·h/mL) |
| --- | --- |
| CC(C)c1c(C(=O)Nc2ccccc2O)c(-c2ccccc2)c(-c2ccc(F)cc2)n1CCC1CC(O)CC(=O)O1 (stereo not drawn) [2-Hydroxy Atorvastatin Lactone, 2-hydroxyatorvastatin lactone] | 31 |
| CC(C)c1c(C(=O)Nc2ccccc2)c(-c2ccccc2)c(-c2ccc(F)cc2)n1CC[C@@H]1C[C@@H](O)CC(=O)O1 | 27.8 |

[Q] Kindly indicate its recorded AUC(0-t). Item: CC(C)c1c(C(=O)Nc2ccccc2O)c(-c2ccccc2)c(-c2ccc(F)cc2)n1CC[C@@H](O)C[C@@H](O)CC(=O)O [2-Hydroxy Atorvastatin, 2-hydroxyatorvastatin]
[A] 10.8

----------
# Assay info: single-oral-dose pharmacokinetic study, plasma AVA and metabolite concentrations in pediatric hypercholesterolemia stratified by SLCO1B1 c.521T>C genotype
# Type: in vivo, human
# Measurement setup: human, plasma, oral, 10 mg, Table S3; Tanner Breast/Testicular Stage 4; mean (± SD); read-out: AUC0-24
Each entry below lists one item and its recorded AUC(0-t) value.
Your answer should be a plain number; it is taken to be in ng·h/mL.

| Compound | Unit descriptor | Measured number |
| --- | --- | --- |
| CC(C)c1c(C(=O)Nc2ccccc2O)c(-c2ccccc2)c(-c2ccc(F)cc2)n1CC[C@@H](O)C[C@@H](O)CC(=O)O [2-Hydroxy Atorvastatin, 2-hydroxyatorvastatin] | ng·h/mL | 4.7 |
| CC(C)c1c(C(=O)Nc2ccccc2)c(-c2ccccc2)c(-c2ccc(F)cc2)n1CC[C@@H]1C[C@@H](O)CC(=O)O1 [Atorvastatin Lactone, atorvastatin lactone] | ng·h/mL | 7.9 |

# input for lookup
[Q] Kindly indicate its recorded AUC(0-t). Item: CC(C)c1c(C(=O)Nc2ccccc2O)c(-c2ccccc2)c(-c2ccc(F)cc2)n1CCC1CC(O)CC(=O)O1 (stereo not drawn) [2-Hydroxy Atorvastatin Lactone, 2-hydroxyatorvastatin lactone]
[A] 13.4

----------
# Assay info: single-oral-dose pharmacokinetic study, plasma AVA and metabolite concentrations in pediatric hypercholesterolemia stratified by SLCO1B1 c.521T>C genotype
# Type: in vivo, human
# Measurement setup: human, plasma, po, 10 mg, SLCO1B1 c.521T/C (n = 13); single oral 10 mg dose; plasma; mean (±SD); read-out: AUC0–24
Each entry below lists one item and its recorded AUC(0-t) value.
Your answer should be a plain number; it is taken to be in ng·h/mL.

Solved cases (2 shown):
| Molecule | Measured number |
| --- | --- |
| CC(C)c1c(C(=O)Nc2ccccc2)c(-c2ccccc2)c(-c2ccc(F)cc2)n1CC[C@@H]1C[C@@H](O)CC(=O)O1 [Atorvastatin Lactone, atorvastatin lactone] | 13 |
| CC(C)c1c(C(=O)Nc2ccccc2O)c(-c2ccccc2)c(-c2ccc(F)cc2)n1CC[C@@H](O)C[C@@H](O)CC(=O)O [2-Hydroxy Atorvastatin, 2-hydroxyatorvastatin] | 7.5 |

# input for lookup
[Q] Kindly indicate its recorded AUC(0-t). Item: CC(C)c1c(C(=O)Nc2ccccc2O)c(-c2ccccc2)c(-c2ccc(F)cc2)n1CCC1CC(O)CC(=O)O1 (stereo not drawn) [2-Hydroxy Atorvastatin Lactone, 2-hydroxyatorvastatin lactone]
[A] 17.4

----------
Each entry below lists one item and its recorded AUC(0-t) value.
# Assay info: single-oral-dose pharmacokinetic study, plasma AVA and metabolite concentrations in pediatric hypercholesterolemia stratified by SLCO1B1 c.521T>C genotype
# Assay type: in vivo, human
# Measurement setup: human, plasma, oral, 10 mg, Table S3; Tanner Pubic Stage 3; read-out: AUC0-24
Your answer should be a plain number; it is taken to be in ng·h/mL.

Solved cases (2 shown):
| Molecule | AUC(0-t), ng·h/mL |
| --- | --- |
| CC(C)c1c(C(=O)Nc2ccccc2O)c(-c2ccccc2)c(-c2ccc(F)cc2)n1CC[C@@H](O)C[C@@H](O)CC(=O)O [2-Hydroxy Atorvastatin, 2-hydroxyatorvastatin] | 4.1 |
| CC(C)c1c(C(=O)Nc2ccccc2)c(-c2ccccc2)c(-c2ccc(F)cc2)n1CC[C@@H]1C[C@@H](O)CC(=O)O1 [Atorvastatin Lactone, atorvastatin lactone] | 7.8 |

# input for lookup
[Q] Kindly indicate its recorded AUC(0-t). Item: CC(C)c1c(C(=O)Nc2ccccc2O)c(-c2ccccc2)c(-c2ccc(F)cc2)n1CCC1CC(O)CC(=O)O1 (stereo not drawn) [2-Hydroxy Atorvastatin Lactone, 2-hydroxyatorvastatin lactone]
[A] 12.7

----------
Each entry below lists one item and its recorded AUC(0-t) value.
# Assay info: single-oral-dose pharmacokinetic study, plasma AVA and metabolite concentrations in pediatric hypercholesterolemia stratified by SLCO1B1 c.521T>C genotype
# Type: in vivo, human
# Measurement setup: human, plasma, oral, 10 mg, Table S1, entire cohort; median (IQR); read-out: AUC 0-24
Your answer should be a plain number; it is taken to be in ng·h/mL.

Solved cases (2 shown):
| Molecule | AUC(0-t) [ng·h/mL] |
| --- | --- |
| CC(C)c1c(C(=O)Nc2ccccc2O)c(-c2ccccc2)c(-c2ccc(F)cc2)n1CC[C@@H](O)C[C@@H](O)CC(=O)O [2-Hydroxy Atorvastatin, 2-hydroxyatorvastatin] | 6.4 |
| CC(C)c1c(C(=O)Nc2ccccc2)c(-c2ccccc2)c(-c2ccc(F)cc2)n1CC[C@@H]1C[C@@H](O)CC(=O)O1 [Atorvastatin Lactone, atorvastatin lactone] | 8.7 |

[Q] Kindly indicate its recorded AUC(0-t). Item: CC(C)c1c(C(=O)Nc2ccccc2O)c(-c2ccccc2)c(-c2ccc(F)cc2)n1CCC1CC(O)CC(=O)O1 (stereo not drawn) [2-Hydroxy Atorvastatin Lactone, 2-hydroxyatorvastatin lactone]
[A] 14.5

Data provenance is paper PMC10815823.
